Known pull-down binding Z-score of a selection of sequences
- Tested on: TO-N3-2 (biotin conjugate)
- Experiment summary: pull-down binding Z-score (relative to library population); higher = stronger binding
- Assay context: RNA library: Library-2
Answer with a bare number; do not write a unit.

For orientation, consider the following solved cases.
> print(dat)
                        biopolymer.sequence           measurement.name  recorded.number
1     UGUUAAGGCAUGUUCAGGAACA [hsa-mir-1265]  pull-down binding Z-score            0.652
2  CUCAUGAUAUGUUUGCCCCAUCAGCGUGUCACGAG [hsa-mir-3616]  pull-down binding Z-score            0.199
3      CCCACCCUGAGUUUUGGUGGG [hsa-mir-6508]  pull-down binding Z-score            -1.22
4  GAUGGCUUUCCUUGAGGAAUCCCAUC [IAV_invivo_PB1_2_Motif_6+IAV_invivo_PB1_2_Motif_6]  pull-down binding Z-score           -0.986

Now consider a different sequence.
So what's the measured pull-down binding Z-score for this one? AAUUUUUUUUUAAUUUAAAAAAUU [hsa-mir-3938]
-1.36
